Target: CAAX farnesyltransferase (Rattus norvegicus, UniProt Q02293+Q04631)
Test: In vitro farnesylation of the compound by CAAX farnesyltransferase (substrate test, thin layer chromatography)
Assay type: biochemical
Conditions: diastereomer A; relative to tetrapeptide CVIM; 3.6 μM, 37° C., 30 min
The reader will find reported % farnesylation "A" values listed item by item below.
Report as a plain number; the unit % is understood.

- compound: "CSCC[C@H](NC(=O)CN1C(=O)C(N(C)C(=O)[C@H](CS)NC(C)=O)N=C(c2ccccc2)c2ccccc21)C(=O)O (stereo partly shown)"
  measured.on: "CAAX farnesyltransferase (Rattus norvegicus, UniProt Q02293+Q04631)"
  data.value: 110
- compound: "CSCC[C@H](NC(=O)CN1C(=O)C(NC(=O)[C@@H](N)CS)N=C(c2ccccc2)c2ccccc21)C(=O)O (stereo partly shown)"
  measured.on: "CAAX farnesyltransferase (Rattus norvegicus, UniProt Q02293+Q04631)"
  data.value: 9
- compound: "CSCC[C@H](NC(=O)CN1C(=O)C(N(C)C(=O)[C@@H](N)CS)N=C(c2ccccc2)c2ccccc21)C(=O)O (stereo partly shown)"
  measured.on: "CAAX farnesyltransferase (Rattus norvegicus, UniProt Q02293+Q04631)"
  data.value: 5

Give the reported % farnesylation "A" for CSCC[C@H](NC(=O)CN1C(=O)C(NC(=O)[C@@H](N)CS)CCc2ccccc21)C(=O)O (stereo partly shown) (system: CAAX farnesyltransferase (Rattus norvegicus, UniProt Q02293+Q04631)). 20

---

Molecular target: CAAX farnesyltransferase (Rattus norvegicus, UniProt Q02293+Q04631)
Assay: In vitro inhibition of CAAX farnesyltransferase
Type: biochemical
Set-up: purified to homogeneity from rat brain homogenates; from tissue; host or cells: rat brain; alternatively recombinant enzyme from a baculovirus expression system
Conditions: diastereomer A; Table D; read-out: EC50 (μM) "A"
experimental.endpoint: EC50 (µM)
Report as a plain number; the unit µM is understood.

- molecule: "CN(C(=O)[C@@H](N)CS)C1N=C(c2ccccc2)c2cc(Cl)ccc2N(CC(=O)N[C@@H](Cc2ccccc2)C(N)=O)C1=O (stereo partly drawn)"
  measured.on: "CAAX farnesyltransferase (Rattus norvegicus, UniProt Q02293+Q04631)"
  EC50 (µM): 1.5

Dear colleague, I am looking for the recorded EC50 of the following molecule: CSCC[C@H](NC(=O)CN1C(=O)C(N(C)C(=O)[C@H](CS)NC(C)=O)N=C(c2ccccc2)c2ccccc21)C(=O)O (stereo partly drawn) 1.2

---

Biological target: CAAX farnesyltransferase (Rattus norvegicus, UniProt Q02293+Q04631)
Assay: In vitro inhibition of CAAX farnesyltransferase
Type: biochemical
Set-up: purified to homogeneity from rat brain homogenates; from tissue; host or cells: rat brain; alternatively recombinant enzyme from a baculovirus expression system
Details: diastereomer A; Table D; read-out: EC50 (μM) "A"
// bucketize EC50: lower band = under 0.5 µM, central band = from 0.5 µM up to 1 µM, upper band = 1 µM and over

- molecule: "CCN[C@@H](CS)C(=O)N(C)C1N=C(c2ccccc2)c2ccccc2N(CC(=O)N[C@@H](CCSC)C(=O)O)C1=O (some centres unmarked) [compound 42]"
  measured.on: "CAAX farnesyltransferase (Rattus norvegicus, UniProt Q02293+Q04631)"
  category: "central band"

Let's switch to this molecule now.
Bin? COC(=O)c1cccc(CN2C(=O)C(N(C)C(=O)[C@@H]3CSC(C)N3)N=C(c3ccccc3)c3cc(Cl)ccc32)c1 (some centres unmarked) [compound 100] central band

Taken from patent US5843941A.
